Reference for the values: PubChem BioAssay AID624483

# fluorescence intensity per entry
test: compound fluorescence in toxin protease inhibitor counterscreen, primary screen, artefact control for toxin protease inhibitor project, biochemical, multiplex microsphere, HTS (AID 624483); conditions: compound autofluorescence counterscreen, microsphere flow cytometry; active compounds read high
Screen size: about 360,000 compounds; about 11,000 (3.1%) were called active. Inconclusive results (about 2%) are left out. Only a selection was taken, and actives are over-represented in it overall.
Response field accepts a number only; no unit should be typed.

Check out these entries, answers already filled in.
molecule: COCCOC(=O)c1sc(=S)n(CCOC)c1N
fluorescence intensity: 23500
//
molecule: Cc1cc(C)cc(OCc2nnc(SCC(=O)OC3CCCCC3)o2)c1
fluorescence intensity: 19000
//
molecule: CCCCCCN1CCN(C2CN(Cc3cn(CCCCCC)nn3)S(=O)(=O)C2)CC1 (configuration not stated)
fluorescence intensity: 5850
//
molecule: Cc1nnc(SCCCn2c(N3CCCCC3)nc3c2c(=O)[nH]c(=O)n3C)s1
fluorescence intensity: 20700
//
molecule: CN(C)C(CNC(=O)c1cccc(S(=O)(=O)N2CCc3ccccc3C2)c1)c1ccccc1 (configuration not stated)
fluorescence intensity: 4070
//
molecule: COC(=O)[C@H](CC(C)C)NC(=O)N1CCCCC1C (some centres not stated)
fluorescence intensity: 6670
//
molecule: Cc1nnc(Sc2nc3c(c(=O)[nH]c(=O)n3C)n2Cc2ccccc2)s1
fluorescence intensity: 5620
//
molecule: CCCn1nc2cc(C(=O)NCc3ccccc3)ccc2c1OCC
fluorescence intensity: 4050
//
molecule: Cc1cc(C)cc(-c2nnc(SCC(=O)NC3CC3)o2)c1
fluorescence intensity: 8900
//
molecule: CCOC(=O)CNC(=O)CSc1nc2cccnc2n1CC
fluorescence intensity: 4460

Consider the additional molecule presented here.
Query: Tell me fluorescence intensity reported for `N[C@@H](Cc1c[nH]c2ccccc12)c1nnc(SCc2c(F)cccc2Cl)o1`
Reply: 22800
